Measured values drawn from PubChem BioAssay (NCI) for this set.

# Tested on: MALME-3M melanoma
# PROTOCOL_TEXT: NCI tumour cell line growth inhibition, 48 h
Reported TGI values are given for each entry in this list.

{"COMPOUND": "COC(=O)/C=C\\C(C#N)(C#N)N=Cc1ccc(Br)cc1", "TGI": "12.4 µM"}
{"COMPOUND": "CC1=C(C(=O)NCc2ccccc2)C(c2ccco2)C(C(=O)NCc2ccccc2)=C(C)N1", "TGI": "> 100 µM"}
{"COMPOUND": "O=[N+]([O-])c1ccc2nc(-c3ccc(Cl)cc3)[nH]c2c1", "TGI": "63 µM"}
{"COMPOUND": "CCOP(=O)(Cc1nc(C#N)c(N)o1)OCC", "TGI": "> 100 µM"}
{"COMPOUND": "Cc1ccc(S(=O)(=O)NC(=O)NC(CC(=O)O)C(=O)O)cc1 (stereo not given)", "TGI": "> 100 µM"}
{"COMPOUND": "Cc1c(C2CCSc3ccccc3N2)sc2ccccc12 (stereo not given)", "TGI": "> 100 µM"}
{"COMPOUND": "CCCCCCCCCCOc1ccc(N=Nc2nnc(-c3ccc(OCCCCC)cc3)s2)cc1", "TGI": "> 100 µM"}
{"COMPOUND": "CC(C)OP(=O)(OC(C)C)/C(C#N)=C/c1c[nH]c2ccccc12", "TGI": "> 100 µM"}
{"COMPOUND": "C[C@H]1CC[C@@H]2[C@@H](C)[C@H]3[C@H](C[C@H]4[C@@H]5CC=C6C[C@@H](O)CC[C@]6(C)[C@H]5CC[C@]34C)N2C1", "TGI": "> 100 µM"}
{"COMPOUND": "CCOC(=O)C(=O)Nc1nc2ccc(C)cc2s1", "TGI": "> 100 µM"}
